# Tested on: DU-145
# runDescription: NCI tumour cell line growth inhibition, 48 h
Calls of active or inactive are those of the source. Rule as the data show it: active = GI50 up to about 1.1 µM and inactive = higher.
Attribute: GI50

O=C1c2ccccc2S(=O)(=O)c2ccccc21: > 100 µM (inactive)

Query :: Entry under review: CO[C@H]1C=CO[C@@]2(C)Oc3c(C)c(O)c4c(O)c(c(CN5CCN(C)CC5)c(O)c4c3C2=O)NC(=O)/C(C)=C\C=C[C@H](C)[C@H](O)C(C)[C@@H](O)C(C)[C@H](OC(C)=O)[C@@H]1C (stereo not given in full) . Reported GI50?
Result :: 34.8 µM (inactive)

Query :: Entry under review: COC(OC)(c1ccccc1)C(Br)Br . Reported GI50?
Result :: > 100 µM (inactive)

Query :: Entry under review: CC(NC(=O)C(N)CC(=O)O)NC(=O)C1CCC1 (stereo not given) . Reported GI50?
Result :: > 100 µM (inactive)

Query :: Entry under review: COc1ccc(Br)c2c1CC(C(=O)O)CC2 (stereo not given) . Reported GI50?
Result :: > 100 µM (inactive)

Query :: Entry under review: COc1ccc2c3c([nH]c2c1)[C@H]1C[C@H]2[C@H](C[C@@H](O)[C@H](OC)[C@H]2C(=O)O)CN1CC3 . Reported GI50?
Result :: > 100 µM (inactive)

Query :: Entry under review: O=C1c2ccc3cc(CCl)cc(O)c3c2C(=O)c2cccc(O)c21 . Reported GI50?
Result :: 4.95 µM (inactive)

Query :: Entry under review: CC(=O)N1C(OC(C)C)CC(C)N1c1ccccc1 (stereo not given) . Reported GI50?
Result :: > 10 µM (inactive)

Query :: Entry under review: CC1=CC(=O)C(=C(C)C)CC1 . Reported GI50?
Result :: > 100 µM (inactive)

Query :: Entry under review: O=P(O)(Cc1ccccc1)c1ccccc1-c1ccccc1 . Reported GI50?
Result :: > 100 µM (inactive)
